# MEASURED ON: ACE2 (human, UniProt Q9BYF1 18-740)
# Sequence (Q9BYF1 18-740 limits assumed): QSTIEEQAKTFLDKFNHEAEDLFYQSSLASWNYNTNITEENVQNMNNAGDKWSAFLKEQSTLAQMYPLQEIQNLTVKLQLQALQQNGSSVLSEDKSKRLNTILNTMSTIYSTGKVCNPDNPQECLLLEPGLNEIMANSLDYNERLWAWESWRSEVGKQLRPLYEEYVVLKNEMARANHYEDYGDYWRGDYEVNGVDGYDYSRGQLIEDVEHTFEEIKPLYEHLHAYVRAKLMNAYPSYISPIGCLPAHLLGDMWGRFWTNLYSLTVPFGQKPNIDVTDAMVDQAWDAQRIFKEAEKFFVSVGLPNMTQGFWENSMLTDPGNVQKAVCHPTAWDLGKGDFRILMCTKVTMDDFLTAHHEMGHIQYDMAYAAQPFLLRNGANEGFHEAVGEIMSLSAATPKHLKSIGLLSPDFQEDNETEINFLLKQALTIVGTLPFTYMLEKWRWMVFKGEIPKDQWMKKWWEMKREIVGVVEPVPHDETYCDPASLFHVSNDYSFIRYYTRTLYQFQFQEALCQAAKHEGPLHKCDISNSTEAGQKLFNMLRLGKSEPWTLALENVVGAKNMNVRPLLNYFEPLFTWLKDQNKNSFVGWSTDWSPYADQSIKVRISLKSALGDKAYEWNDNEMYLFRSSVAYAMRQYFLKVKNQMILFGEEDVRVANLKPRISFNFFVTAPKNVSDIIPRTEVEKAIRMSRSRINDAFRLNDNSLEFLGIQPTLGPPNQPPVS
METRIC: Kd (µM)
Lab book: enter the figure in µM, no units written.

Task: Any idea what its Kd is? The binder is ACE2 variant antibody 3-8 (antibody, V domains shown) VH: EVQLLESGGGLVQPGGSLRLSCAASGFTFRSHAMSWVRQAPGKGLEWVSSISGGGASTYYADSVKGRFTISRDNSKNTLYLQMNSLRAEDTAVYYCARVKYLTTSSGWPRPYFDNWGQGTLVTVSS VL: DIQMTQSPSSLSASVGDRVTITCRASQSIGKYLNWYQQKPGKAPKLLIYASSTLQRGVPSRFSGSGSGTDFTLTISSLQPEDFATYYCQQSLSTPFTFGQGTKVEIK
Result: 0.0446

Task: Any idea what its Kd is? The binder is ACE2 variant antibody 4-75 (VHH) VHH: EVQLVESGGGLVQPGGSLRLSCAASGRTFGDDTMGWFRQAPGKEREFVAAINWTGGYTPYADSVKGRFTISADNSKNTAYLQMNSLKPEDTAVYYCATDPPLFWGQGTLVTVSS
Result: 0.016
